Origin of the recorded values: ChEMBL document CHEMBL5537165

Target: Non-structural protein 4b (Hepacivirus hominis)
Sequence (F5B4I0 whole entry): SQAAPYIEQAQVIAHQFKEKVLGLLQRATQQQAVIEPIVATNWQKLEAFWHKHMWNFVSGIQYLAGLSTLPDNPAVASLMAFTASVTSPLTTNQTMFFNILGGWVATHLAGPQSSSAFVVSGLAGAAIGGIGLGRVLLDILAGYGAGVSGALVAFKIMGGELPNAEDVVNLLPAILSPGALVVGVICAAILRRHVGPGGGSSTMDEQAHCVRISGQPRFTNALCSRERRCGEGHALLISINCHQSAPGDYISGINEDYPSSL
Assay: Inhibition of Hepatitis C virus genotype 2b NS4B
pIC50: −log10 of the molar value.
measuredProperty: pIC50

• CC(C)(C)[C@@H]1NC(=O)O[C@@H]2CCC[C@H]2OC/C=C/C(F)(F)c2nc3ccccc3nc2O[C@@H]2C[C@@H](C(=O)N[C@]3(C(=O)NS(=O)(=O)C4(C)CC4)C[C@H]3C(F)F)N(C2)C1=O = 8.42
